System: A498 renal
Assay: NCI tumour cell line growth inhibition, 48 h
Response key: satisfied means TGI >= 40 µM; not satisfied means TGI < 40 µM.

- molecule: "CCSc1nnc(CSc2nc(-c3ccccc3)c(-c3ccccc3)[nH]2)n1-c1ccccc1"
  class-assignment: "not satisfied"
- molecule: "COc1ccc(C(=S)N2CCN(c3cccc(Cl)c3)CC2)cc1"
  class-assignment: "satisfied"
- molecule: "O=C(/C(=C(/Br)I)c1ccccc1)c1ccccc1"
  class-assignment: "not satisfied"
- molecule: "Cc1ccc2c(c1C)CC1(Cc3c(ccc4c3CCC4)C1=O)C2=O (stereo not given)"
  class-assignment: "satisfied"
- molecule: "CN(C)/C(=N/C(=S)Nc1ccccc1)SCc1ccccc1"
  class-assignment: "satisfied"
- molecule: "O=C(Cc1nc2ccc(C(=O)c3ccccc3)cc2[nH]c1=O)C(=O)Nc1ccc(Br)cc1"
  class-assignment: "satisfied"
- molecule: "CCOC(=O)C1=C(C)Nc2ccccc2S1"
  class-assignment: "satisfied"
- molecule: "COc1ccc(NC(=O)Nc2n[nH]c3ccccc23)cc1"
  class-assignment: "satisfied"
- molecule: "O=C(/C=C/c1ccccc1)/C=C/c1ccccc1O"
  class-assignment: "satisfied"
- molecule: "CNC(=O)c1ccccc1CC1(O)c2ccccc2Oc2ccccc21"
  class-assignment: "not satisfied"
- molecule: "Oc1ccccc1C(c1cc2c(cc1O)OCO2)N1CCOCC1 (stereo not given)"
  class-assignment: "satisfied"
- molecule: "COc1ccc(Nc2[nH]c(C(C)=O)c(N)c2C(=S)Nc2ccccc2)cc1"
  class-assignment: "satisfied"
- molecule: "COc1cccc(/C=C/C(=O)c2cc3c(N)c(C(=O)Nc4ccccc4C)sc3nc2C)c1"
  class-assignment: "not satisfied"
- molecule: "COC(=O)C(=O)CC(=O)CCn1ncc(Cl)c(Cl)c1=O"
  class-assignment: "satisfied"
- molecule: "Cc1ccc(S(=O)(=O)N2CCN3C(=O)c4ccccc4C32c2ccc(F)cc2)cc1 (stereo not given)"
  class-assignment: "satisfied"

====

Test system: NCI-H522 lung
Assay: NCI tumour cell line growth inhibition, 48 h; in the data active = GI50 below about 0.43 µM; inactive = the rest
Possible outcomes: active, inactive

- compound-string: "CN1CCN(Cc2ccc(C(=O)Nc3cncc(C#Cc4cnc(N)c5ccccc45)c3)cc2C(F)(F)F)CC1"
  class-assignment: "inactive"
- compound-string: "COc1ccc(NC(=O)Nc2n[nH]c3ccccc23)cc1"
  class-assignment: "inactive"
- compound-string: "C[C@@H]1CC[C@H]2C(COCC3=C(C(F)(F)F)O[C@@H]4O[C@@]5(C)CC[C@H]6[C@H](C)CC[C@@H]3[C@@]46OO5)=C(C(F)(F)F)O[C@@H]3O[C@@]4(C)CC[C@@H]1[C@]32OO4"
  class-assignment: "active"
- compound-string: "Cc1nn(-c2ccc(S(=O)(=O)[O-])cc2)c([O-])c1N=[N+](C)c1ccc(-c2ccc(N=Nc3ccc4c(S(=O)(=O)[O-])cc(S(=O)(=O)[O-])c(N)c4c3[O-])c([O-])c2)cc1[O-].[Cu+2].[Cu+2].[Na+]"
  class-assignment: "inactive"
- compound-string: "COc1cc(/C=C\\[N+](=O)[O-])ccc1O"
  class-assignment: "inactive"
- compound-string: "COc1cc(C(=O)NC2c3ccccc3-c3ccccc32)c(N)cc1OCc1ccccc1"
  class-assignment: "inactive"
- compound-string: "Nc1n[nH]c2ccc([C@@H]3Nc4ccc5[nH]ncc5c4[C@H]4[C@H]5CCC(C5)[C@H]43)cc12"
  class-assignment: "active"
